biological target: T1, hNPR1-mFc:hBNP complex (human, UniProt P16860 103-134); assay: SPR, mAb captured, 25C
T1 construct: also called human NPR1 complexed to BNP
READOUT: koff (s⁻¹)
Numbers only, in s⁻¹.

A selection of reference data follows.
# BINDER, koff [s⁻¹]
rows = [
    ("mAb22033 (antibody, human IgG4, V domains shown) VH: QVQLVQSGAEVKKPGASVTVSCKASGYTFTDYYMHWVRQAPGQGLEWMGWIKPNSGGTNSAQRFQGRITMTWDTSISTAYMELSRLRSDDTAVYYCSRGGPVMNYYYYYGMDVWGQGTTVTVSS VL: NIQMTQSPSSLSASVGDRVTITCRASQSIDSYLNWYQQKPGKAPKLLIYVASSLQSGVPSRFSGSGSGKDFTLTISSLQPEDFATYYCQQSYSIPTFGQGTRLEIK", "6.67e-05"),
    ("mAb22805 (antibody, human IgG4, V domains shown) VH: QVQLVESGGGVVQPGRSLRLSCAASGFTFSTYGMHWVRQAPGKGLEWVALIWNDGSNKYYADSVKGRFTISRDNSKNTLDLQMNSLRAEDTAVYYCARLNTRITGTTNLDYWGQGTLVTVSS VL: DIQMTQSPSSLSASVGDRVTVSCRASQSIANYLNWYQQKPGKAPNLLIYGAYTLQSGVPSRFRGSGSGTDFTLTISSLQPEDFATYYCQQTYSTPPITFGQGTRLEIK", 0.000152),
    ("mAb22809 (antibody, human IgG4, V domains shown) VH: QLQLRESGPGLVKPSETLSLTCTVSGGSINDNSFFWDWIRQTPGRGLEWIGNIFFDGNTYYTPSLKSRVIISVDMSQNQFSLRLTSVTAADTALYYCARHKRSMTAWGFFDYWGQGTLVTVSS VL: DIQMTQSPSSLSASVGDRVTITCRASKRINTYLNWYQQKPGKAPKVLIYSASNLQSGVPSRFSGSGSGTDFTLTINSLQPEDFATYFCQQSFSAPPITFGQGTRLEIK", 0.000221),
    ("mAb22035 (antibody, human IgG4, V domains shown) VH: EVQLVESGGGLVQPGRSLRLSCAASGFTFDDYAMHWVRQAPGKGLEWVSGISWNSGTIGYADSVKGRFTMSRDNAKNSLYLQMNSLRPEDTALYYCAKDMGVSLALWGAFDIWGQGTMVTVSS VL: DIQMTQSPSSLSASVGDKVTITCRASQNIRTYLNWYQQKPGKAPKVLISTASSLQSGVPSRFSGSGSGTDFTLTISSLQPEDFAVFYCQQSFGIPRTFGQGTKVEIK", "8.7e-05"),
    ("mAb25479 (antibody, human IgG4, V domains shown) VH: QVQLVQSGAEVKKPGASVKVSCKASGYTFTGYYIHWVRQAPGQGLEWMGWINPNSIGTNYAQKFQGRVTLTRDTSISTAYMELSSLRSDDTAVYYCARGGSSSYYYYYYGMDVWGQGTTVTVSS VL: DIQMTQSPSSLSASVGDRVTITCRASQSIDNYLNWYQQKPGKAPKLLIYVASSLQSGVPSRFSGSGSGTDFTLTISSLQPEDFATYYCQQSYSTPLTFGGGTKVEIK", 0.000123),
]

Now look at this entry.
INPUT: Please report the recorded koff for mAb25502 (antibody, human IgG4, V domains shown) VH: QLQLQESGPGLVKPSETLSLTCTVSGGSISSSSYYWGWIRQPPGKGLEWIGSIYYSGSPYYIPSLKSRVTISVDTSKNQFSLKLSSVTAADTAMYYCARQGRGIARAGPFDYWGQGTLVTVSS VL: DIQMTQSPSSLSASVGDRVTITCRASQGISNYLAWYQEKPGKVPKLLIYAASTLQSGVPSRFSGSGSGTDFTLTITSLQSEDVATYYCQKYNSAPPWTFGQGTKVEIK .
OUTPUT: 0.000236
